Item-by-item account of PBM E-score
- ASSAY SYSTEM: Ylr278c (UniProt Q05854)
- Sequence (Q05854 whole entry): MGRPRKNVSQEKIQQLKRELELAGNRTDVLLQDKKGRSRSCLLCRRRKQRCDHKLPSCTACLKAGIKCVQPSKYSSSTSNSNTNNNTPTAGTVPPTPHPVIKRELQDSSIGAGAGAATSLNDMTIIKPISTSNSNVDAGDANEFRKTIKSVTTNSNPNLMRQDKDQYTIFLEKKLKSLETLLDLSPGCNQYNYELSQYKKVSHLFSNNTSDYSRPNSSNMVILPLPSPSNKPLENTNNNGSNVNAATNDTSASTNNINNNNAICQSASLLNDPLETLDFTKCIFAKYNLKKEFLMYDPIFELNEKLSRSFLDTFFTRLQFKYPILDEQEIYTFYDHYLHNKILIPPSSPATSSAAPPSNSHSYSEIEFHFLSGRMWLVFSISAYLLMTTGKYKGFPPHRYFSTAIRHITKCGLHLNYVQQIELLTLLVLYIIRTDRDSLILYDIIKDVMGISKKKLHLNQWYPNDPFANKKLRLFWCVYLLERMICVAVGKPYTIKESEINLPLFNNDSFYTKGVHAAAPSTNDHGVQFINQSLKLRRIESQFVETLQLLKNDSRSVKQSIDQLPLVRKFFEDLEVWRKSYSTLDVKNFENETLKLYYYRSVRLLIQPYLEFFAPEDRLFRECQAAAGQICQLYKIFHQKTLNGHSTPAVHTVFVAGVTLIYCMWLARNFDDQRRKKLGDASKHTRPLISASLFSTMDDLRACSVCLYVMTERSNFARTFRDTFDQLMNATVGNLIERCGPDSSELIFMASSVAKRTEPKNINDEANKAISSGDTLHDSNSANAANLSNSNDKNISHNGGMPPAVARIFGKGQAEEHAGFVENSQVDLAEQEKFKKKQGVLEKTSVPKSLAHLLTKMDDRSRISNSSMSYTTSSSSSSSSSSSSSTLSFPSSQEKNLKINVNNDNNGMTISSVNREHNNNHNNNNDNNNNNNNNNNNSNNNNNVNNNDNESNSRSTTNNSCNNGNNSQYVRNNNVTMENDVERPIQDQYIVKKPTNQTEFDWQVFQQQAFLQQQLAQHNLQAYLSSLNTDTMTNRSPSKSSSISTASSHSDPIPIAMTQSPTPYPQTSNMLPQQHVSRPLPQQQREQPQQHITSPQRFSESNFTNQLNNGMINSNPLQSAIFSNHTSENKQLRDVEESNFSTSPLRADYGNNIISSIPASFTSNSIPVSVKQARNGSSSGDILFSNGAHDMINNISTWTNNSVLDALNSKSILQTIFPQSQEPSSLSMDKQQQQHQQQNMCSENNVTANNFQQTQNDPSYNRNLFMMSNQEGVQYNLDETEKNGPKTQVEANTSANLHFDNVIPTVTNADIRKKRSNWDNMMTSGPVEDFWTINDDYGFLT
- TEST PROTOCOL: PBM E-score (8-mer binding enrichment) (E-score (-0.5 to 0.5)); higher = stronger / more preferred TF binding
- TEST CONTEXT: protein concentration: 200 nM; construct: GST-DNA-binding domain
In all, about 33,000 sequences were measured (“E-score (-0.5 to 0.5)”: median about -0.054, highest 2% from about 0.39 on). This is one part of a sample in which the highest values are shown more often than they occur.
MEASUREMENT NAME: PBM E-score

SEQUENCE TEXT	MEASUREMENT NAME	RESULT
ACGGAGCG	PBM E-score	0.396
CAGGAGCG	PBM E-score	-0.00543
ACCCCGGG	PBM E-score	0.404
CCGGGGGA	PBM E-score	0.378
AGCTGGTG	PBM E-score	-0.109
ACATTGGT	PBM E-score	-0.1
CGGGAGCA	PBM E-score	0.108
CGGGGGAA	PBM E-score	0.255
AAGTGGTA	PBM E-score	-0.0771
ACGGAGCA	PBM E-score	0.344
ACGGAGCT	PBM E-score	0.395
GCGCGCAA	PBM E-score	0.219
CCACTATC	PBM E-score	0.00626
ACCAAGAG	PBM E-score	-0.29
TCGCCAGA	PBM E-score	-0.26
CCGGAGCA	PBM E-score	0.473
AGCAATCG	PBM E-score	-0.0973
GAGGGGTA	PBM E-score	-2e-05
TACGGTCA	PBM E-score	0.0722
CGACTTAG	PBM E-score	-0.168
CCAGAGCG	PBM E-score	-0.00204
CGCCCGAA	PBM E-score	0.111
GCCGGTAA	PBM E-score	0.341
ACGGAGCC	PBM E-score	0.385
ACCCGGGG	PBM E-score	0.246
CAAGTGCA	PBM E-score	-0.362
GCGGGGTA	PBM E-score	0.323
GATGACGC	PBM E-score	-0.146
ATGCAGAA	PBM E-score	-0.16
ACCGGGAA	PBM E-score	0.352
GTCTGCGA	PBM E-score	-0.207
ACCATAGA	PBM E-score	0.00619
CGCCCGGC	PBM E-score	0.292
ACAGACTC	PBM E-score	-0.109
ATCGCCAC	PBM E-score	-0.0201
CACCGAAC	PBM E-score	0.102
CCGGAGCG	PBM E-score	0.458
AGGGCCCA	PBM E-score	0.00775
CCCCGGGC	PBM E-score	0.342
AGGGAGCG	PBM E-score	-0.14
CCACTGAG	PBM E-score	-0.208
GTACTTTA	PBM E-score	-0.191
TAGAGGAA	PBM E-score	-0.211
TCCGGGAA	PBM E-score	0.419
ATGGAGCG	PBM E-score	-0.0671
CACACCCA	PBM E-score	-0.107

* * *

- ASSAY SYSTEM: Ylr278c (UniProt Q05854)
- TEST PROTOCOL: PBM E-score (8-mer binding enrichment) (E-score (-0.5 to 0.5)); higher = stronger / more preferred TF binding
- TEST CONTEXT: protein concentration: 200 nM; construct: GST-DNA-binding domain
Whole data set: some 33,000 sequences, median “E-score (-0.5 to 0.5)” near -0.054, cut for the highest 2% near 0.39. The sample as a whole holds a higher share of the highest values than the screen did.

SEQUENCE TEXT	PBM E-score
AGCTTAAG	-0.229
AACTCTTC	-0.204
GTGTCCGA	0.374
CACTCGGA	0.329
AGAAGAGG	-0.194
ATGTCCCG	0.319
CTGTCCGA	0.335
GACTCGGA	0.4
ATGTCCGG	0.468
TACTCGGA	0.342
AACTCGGT	0.00153
